assay text: Antagonist activity at mouse CCR2 assessed as inhibition of MCP1 induced chemotaxis after 30 mins
This section presents compounds with their documented IC50 values.
quantity measured: IC50 (nM)

CCO[C@H]1CN([C@H]2CC[C@@](O)(c3ccc(C)cc3)CC2)C[C@@H]1NC(=O)CNC(=O)c1cccc(C(F)(F)F)c1 ... 13
CCO[C@H]1CN([C@H]2CC[C@@H](c3ccccc3)CC2)C[C@@H]1NC(=O)CNC(=O)c1cccc(C(F)(F)F)c1 ... 14
CCO[C@H]1CN([C@H]2CC[C@@](O)(c3ccccc3)CC2)C[C@@H]1NC(=O)CNC(=O)c1cccc(C(F)(F)F)c1 ... 444
CCCO[C@H]1CN([C@H]2CC[C@@H](c3ccccc3)CC2)C[C@@H]1NC(=O)CNC(=O)c1cccc(C(F)(F)F)c1 ... 158
O=C(CNC(=O)c1cccc(C(F)(F)F)c1)N[C@H]1CN([C@H]2CC[C@@H](c3ccccc3)CC2)C[C@@H]1O ... 265

###

assay text: Antagonist activity at human CCR2 assessed as inhibition of MCP1 induced chemotaxis after 30 mins
I'd appreciate it if you marked entries satisfied when IC50 is lower than 3 nM and not satisfied when it is not.

CCCO[C@H]1CN([C@H]2CC[C@@H](c3ccccc3)CC2)C[C@@H]1NC(=O)CNC(=O)c1cccc(C(F)(F)F)c1 ... satisfied
CCO[C@H]1CN([C@H]2CC[C@@H](c3ccccc3)CC2)C[C@@H]1NC(=O)CNC(=O)c1cccc(C(F)(F)F)c1 ... not satisfied
CCO[C@H]1CN([C@H]2CC[C@@](O)(c3ccc(C)cc3)CC2)C[C@@H]1NC(=O)CNC(=O)c1cccc(C(F)(F)F)c1 ... satisfied
O=C(CNC(=O)c1cccc(C(F)(F)F)c1)N[C@H]1CN([C@H]2CC[C@@H](c3ccccc3)CC2)C[C@@H]1O ... not satisfied
